system: UACC-257 melanoma; test: NCI tumour cell line growth inhibition, 48 h
Kindly state TGI for each of the entries shown.

Past entries and their recorded results:
COc1ccc(-c2[nH]c3ccccc3c2/C=C(\C#N)S(=O)(=O)c2ccccc2)cc1 | > 100 µM
O=c1[nH]c2nc[nH]c2c(=O)n1C1CCCCC1 | > 100 µM
COC1=C2CC(C)CC(OC)C(OC(=O)CCCN)C(C)/C=C(\C)C(OC(N)=O)C(OC)/C=C\C=C(/C)C(=O)NC(=CC1=O)C2=O (configuration not stated) | 17.7 µM
NC(=O)c1sc2nc3ccccc3n2c1N | > 100 µM

Required: TGI, one value per compound below.
1. CC1=NNC(=S)NCCCN2CCN(CCCNC(=S)NN=C(C)C=NNC(=S)NCCCN3CCN(CCCNC(=S)NN=C1)CC3)CC2
2. O/N=C1/CCCc2nonc21
3. CCOP(=O)(OCC)C(Cc1ccc(Cl)cc1)NS(=O)(=O)c1ccc(C)cc1 (configuration not stated)
4. NC(=O)CC(N)c1nn[nH]n1 (configuration not stated)
5. c1ccc(COC2C3COC(O3)C(OCc3ccccc3)C2OCc2ccccc2)cc1 (configuration not stated)
6. C=C1C=CC2(Br)OC3CC(C)(Cl)C(Br)CC13C2(C)C (configuration not stated)
7. CC(C)=CCC/C(C)=C/CCC1(C)C=Cc2c(c3ccccc3oc2=O)O1 (configuration not stated)

1: > 100 µM; 2: > 100 µM; 3: > 100 µM; 4: > 100 µM; 5: > 100 µM; 6: 42.8 µM; 7: 31.2 µM

The values you see were collected from PubChem BioAssay (NCI).
